Origin of values: paper PMC5382265

Measured IC50, listed per entry for reference.
target.or.test.system: UniProt:Q4VWF8
assay.details: biochemical
condition.notes: pIC50 B. malayi iPGM

{"compound": "CC(C)C[C@H](NC(=O)[C@H](Cc1ccc(O)cc1)NC(=O)[C@@H]1CSCC(=O)N[C@H](Cc2ccc(O)cc2)C(=O)N[C@@H](CC(=O)O)C(=O)N[C@@H](Cc2ccc(O)cc2)C(=O)N2CCC[C@H]2C(=O)NCC(=O)N[C@@H](CC(=O)O)C(=O)N[C@@H](Cc2ccc(O)cc2)C(=O)N1)C(=O)N[C@@H](Cc1ccc(O)cc1)C(=O)NCC(=O)N[C@H](C(=O)N[C@@H](CO)C(=O)NCC(N)=O)[C@@H](C)O", "IC50 [nM]": 525}
{"compound": "CC(C)C[C@H](NC(=O)[C@H](Cc1ccc(O)cc1)NC(=O)[C@@H]1CSCC(=O)N[C@H](Cc2ccc(O)cc2)C(=O)N[C@@H](CC(=O)O)C(=O)N[C@@H](Cc2ccc(O)cc2)C(=O)N2CCC[C@H]2C(=O)NCC(=O)N[C@@H](CC(=O)O)C(=O)N[C@@H](Cc2ccc(O)cc2)C(=O)N1)C(=O)N[C@@H](Cc1ccc(O)cc1)C(=O)NCC(=O)N[C@H](C(=O)N[C@@H](CS)C(N)=O)[C@@H](C)O", "IC50 [nM]": 0.324}
{"compound": "CC(C)C[C@H](NC(=O)[C@H](Cc1ccc(O)cc1)NC(=O)[C@@H]1CSCC(=O)N[C@H](Cc2ccc(O)cc2)C(=O)N[C@@H](CC(=O)O)C(=O)N[C@@H](Cc2ccc(O)cc2)C(=O)N2CCC[C@H]2C(=O)NCC(=O)N[C@@H](CC(=O)O)C(=O)N[C@@H](Cc2ccc(O)cc2)C(=O)N1)C(=O)N[C@@H](Cc1ccc(O)cc1)C(=O)NCC(=O)N[C@H](C(N)=O)[C@@H](C)O", "IC50 [nM]": 692}

----------
Measured pIC50, listed per entry for reference.
target.or.test.system: B. malayi iPGM (Brugia malayi)
Sequence (Q4VWF8 whole entry, looked up): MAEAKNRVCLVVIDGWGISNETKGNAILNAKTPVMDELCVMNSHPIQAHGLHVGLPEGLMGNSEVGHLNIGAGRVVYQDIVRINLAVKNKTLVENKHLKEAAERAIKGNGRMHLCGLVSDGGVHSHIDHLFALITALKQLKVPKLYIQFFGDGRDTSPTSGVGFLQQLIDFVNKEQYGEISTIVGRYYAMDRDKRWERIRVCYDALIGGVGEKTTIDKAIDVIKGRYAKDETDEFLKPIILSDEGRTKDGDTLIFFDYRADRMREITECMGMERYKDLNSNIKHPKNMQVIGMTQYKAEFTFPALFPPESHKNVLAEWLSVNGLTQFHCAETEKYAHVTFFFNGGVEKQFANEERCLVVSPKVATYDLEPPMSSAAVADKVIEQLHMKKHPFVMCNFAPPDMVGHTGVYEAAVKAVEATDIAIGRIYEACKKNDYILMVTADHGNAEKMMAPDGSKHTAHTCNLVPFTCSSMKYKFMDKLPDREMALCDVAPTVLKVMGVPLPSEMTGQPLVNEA
assay.details: biochemical
condition.notes: pIC50 B. malayi iPGM
pIC50: −log10 of the molar value. Positions of bridges follow the written chain, without caps; N, C: chain ends. Non-standard residues stand in square brackets, D forms with d. Residues, ends and D or L forms follow the SMILES beside them.

{"molecule": "CC(=O)N[C@H](Cc1ccc(O)cc1)C(=O)N[C@@H](CC(=O)O)C(=O)N[C@@H](Cc1ccc(O)cc1)C(=O)N1CCC[C@H]1C(=O)NCC(=O)N[C@@H](CC(=O)O)C(=O)N[C@@H](Cc1ccc(O)cc1)C(=O)N[C@@H](CO)C(=O)N[C@@H](Cc1ccc(O)cc1)C(=O)N[C@@H](CC(C)C)C(=O)N[C@@H](Cc1ccc(O)cc1)C(=O)NCC(=O)N[C@H](C(=O)N[C@@H](CS)C(=O)NCC(N)=O)[C@@H](C)O [Ce-L2] (Ac-[dY]DYPGDYSYLYGTCG-NH2)", "pIC50": 4.89}
{"molecule": "CC(C)C[C@H](NC(=O)[C@H](Cc1ccc(O)cc1)NC(=O)[C@@H]1CSCC(=O)N[C@H](Cc2ccc(O)cc2)C(=O)N[C@@H](CC(=O)O)C(=O)N[C@@H](Cc2ccc(O)cc2)C(=O)N2CCC[C@H]2C(=O)NCC(=O)N[C@@H](CC(=O)O)C(=O)N[C@@H](Cc2ccc(O)cc2)C(=O)N1)C(=O)N[C@@H](Cc1ccc(O)cc1)C(=O)NCC(N)=O", "pIC50": 5.93}
{"molecule": "CC(C)C[C@H](NC(=O)[C@H](Cc1ccc(O)cc1)NC(=O)[C@@H]1CSCC(=O)N[C@H](Cc2ccc(O)cc2)C(=O)N[C@@H](CC(=O)O)C(=O)N[C@@H](Cc2ccc(O)cc2)C(=O)N2CCC[C@H]2C(=O)NCC(=O)N[C@@H](CC(=O)O)C(=O)N[C@@H](Cc2ccc(O)cc2)C(=O)N1)C(N)=O [Ce-2e] ({CH2CO}-[dY]DYPGDYCYL-NH2; thioether N-8)", "pIC50": 5.53}
